compounds and their reported TGI
tested on: KM12 colon; test: NCI tumour cell line growth inhibition, 48 h

| COMPOUND | TARGET DESC | TGI |
| --- | --- | --- |
| O=C(O)Cc1cccc2c1OC(c1ccccc1)C(Cl)(C(=O)c1ccccc1)C2=O (centres undefined) | KM12 colon | 50.6 µM |

Req: Item COC(=O)CCc1cc(O)c2c(c1)C(C(=O)OC)C(c1ccc(O)c(O)c1)O2 (centres undefined) with KM12 colon - TGI?
Resp: > 46.5 µM

Req: Item "O=c1c2cc(S(=O)(=O)O)ccc2nc(COc2ccc(Oc3ccc(Cl)cc3Cl)cc2)n1-c1ccc(Cl)cc1Oc1c(Cl)cccc1Cl" with KM12 colon - TGI?
Resp: > 100 µM

Req: Item "CC(=O)OCCOCn1cnc2c(Cl)nc(Cl)nc21" with KM12 colon - TGI?
Resp: 44.1 µM

Req: Item "CC(C)c1cc2c(O)c(c1)Cc1cc(C(C)C)cc(c1O)Cc1cc(C(C)C)cc(c1O)Cc1cc(C(C)C)cc(c1O)C2" with KM12 colon - TGI?
Resp: > 100 µM

Req: Item "COc1ncc(-c2ccc3ncnc(Nc4cccc(Cl)c4)c3c2)cc1NS(=O)(=O)CCN1CCOCC1" with KM12 colon - TGI?
Resp: > 100 µM

Req: Item "N.N.O=C([O-])P(=O)([O-])[O-].[Na+].[Pt+4]" with KM12 colon - TGI?
Resp: > 100 µM

Req: Item NC(CCC(=O)O)C(=O)N1CCN(c2nc(N3CCCC3)c3nc(Cl)c(NCc4ccccc4)nc3n2)CC1 (centres undefined) with KM12 colon - TGI?
Resp: 40.3 µM

Req: Item "c1ccc2c(c1)nc1n2CNC1" with KM12 colon - TGI?
Resp: > 100 µM

* * *

tested on: TK-10 renal; assay: NCI tumour cell line growth inhibition, 48 h
METRIC NAME: TGI (µM)
Reply numerically in µM, unit not repeated.

Example results:
| LINE NOTATION | READING UNIT | TGI |
| --- | --- | --- |
| NC(N)=N/N=C/c1c(-c2cccc([N+](=O)[O-])c2)nc2n1CCS2 | µM | 47.4 |
| COC(=O)C(=Cc1cc(OC)c(OC)c(OC)c1-c1cc2c(cc1C(C)=O)OCO2)C(=O)OC | µM | 187 |
| Cc1nc2ccccc2n1C(=O)c1c(F)c(F)c(F)c(F)c1F | µM | 66.3 |

--- query ---
Req: Query (compound): "COc1cc2c(c(OC)c1OC)C(=O)[C@@H]1c3ccc([N+](=O)[O-])cc3C(=O)N(CCCBr)[C@H]21" ; field requested: TGI
Resp: 34.9

* * *

tested on: 786-0 renal; assay: NCI tumour cell line growth inhibition, 48 h
compounds and their reported TGI

| COMPOUND | RECORDED VALUE |
| --- | --- |
| CN(C)/C=N/S(=O)(=O)c1nn2c(C=O)c(-c3ccc(Cl)cc3)nc2s1 | 2.5 µM |
| NC(N)=N/N=C/c1c(-c2cccc([N+](=O)[O-])c2)nc2n1CCS2 | > 100 µM |
| c1ccc2c(c1)nc1n2CNC1 | > 100 µM |
| COc1ccc(/C=C\c2cc(OC)c(OC)c(OC)c2)cc1OC(=O)NCCN(C)C | > 34.8 µM |
| CCOc1ccc2c(c1)[n+]([O-])c(-c1nc3ccccc3s1)c(N)[n+]2[O-] | > 100 µM |
| CCOC(=O)CCn1[nH]c(=O)c(Cl)c(Cl)c1=O | > 100 µM |
| O=C1C=CC=C/C1=C1\N=C(c2ccccc2OCC(=O)c2ccc(Br)cc2)SS1 | > 100 µM |
| Cc1nc(-c2ccccc2)c(-c2ccccc2)s1 | 50.8 µM |
| O=C1OC(c2ccco2)=N/C1=C\c1cccc([N+](=O)[O-])c1 | > 100 µM |
| O=C1C(Cl)C(c2cccc(Cl)c2)N1c1ccc(-n2c(=S)[nH]c3ccccc3c2=O)cc1 (stereo unspecified) | 54.9 µM |

--- query ---
Req: Query (compound): COc1ccc2c3c(coc13)C(CCC(=O)O)CC2 (stereo unspecified) ; field requested: TGI
Resp: > 100 µM

meta.source: PubChem BioAssay (NCI)
